Target: chimeric DR-IE (human-mouse chimeric MHC class II molecule) (human; murine)
Test: cell-based or functional assay
I'd appreciate it if you could supply Maximum inhibition(%), IL-2 secretion of T-Hyb 1 cells; Fab values for the items below.
// units = %; emit number, no label

QUERY: Query (binder): MS-GPC-8-27-7 (Fab) (Fab, V domains shown) VH: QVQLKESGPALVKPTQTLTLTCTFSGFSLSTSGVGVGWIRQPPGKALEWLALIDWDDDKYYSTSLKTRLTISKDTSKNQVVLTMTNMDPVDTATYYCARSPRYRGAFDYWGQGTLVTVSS VL: DIVLTQPPSVSGAPGQRVTISCSGSESNIGNNYVGWYQQLPGTAPKLLIYDNNQRPSGVPDRFSGSKSGTSASLAITGLQSEDEADYYCQSYDMNVHVFGGGTKLTVLG ; field requested: Maximum inhibition(%), IL-2 secretion of T-Hyb 1 cells; Fab
RESULT: 100

QUERY: Query (binder): MS-GPC-8-27-41 (Fab) (Fab, V domains shown) VH: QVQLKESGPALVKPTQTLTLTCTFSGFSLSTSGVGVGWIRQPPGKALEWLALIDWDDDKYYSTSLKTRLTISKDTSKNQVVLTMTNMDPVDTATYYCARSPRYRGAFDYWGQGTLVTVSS VL: DIVLTQPPSVSGAPGQRVTISCSGSESNIGNNYVQWYQQLPGTAPKLLIYDNNQRPSGVPDRFSGSKSGTSASLAITGLQSEDEADYYCQSYDMNVHVFGGGTKLTVLG ; field requested: Maximum inhibition(%), IL-2 secretion of T-Hyb 1 cells; Fab
RESULT: 100
